Attribution: patent US8871753B2

biological target: Recombinant Human Anaplastic Lymphoma Kinase (Homo sapiens, UniProt Q9UM73); construct: purchased Invitrogen, Carlsbad, Calif; assay: ALK HTRF kinase assay; format: biochemical; settings: Table B1; cells without percent sign
Sequence (Q9UM73 19-1620): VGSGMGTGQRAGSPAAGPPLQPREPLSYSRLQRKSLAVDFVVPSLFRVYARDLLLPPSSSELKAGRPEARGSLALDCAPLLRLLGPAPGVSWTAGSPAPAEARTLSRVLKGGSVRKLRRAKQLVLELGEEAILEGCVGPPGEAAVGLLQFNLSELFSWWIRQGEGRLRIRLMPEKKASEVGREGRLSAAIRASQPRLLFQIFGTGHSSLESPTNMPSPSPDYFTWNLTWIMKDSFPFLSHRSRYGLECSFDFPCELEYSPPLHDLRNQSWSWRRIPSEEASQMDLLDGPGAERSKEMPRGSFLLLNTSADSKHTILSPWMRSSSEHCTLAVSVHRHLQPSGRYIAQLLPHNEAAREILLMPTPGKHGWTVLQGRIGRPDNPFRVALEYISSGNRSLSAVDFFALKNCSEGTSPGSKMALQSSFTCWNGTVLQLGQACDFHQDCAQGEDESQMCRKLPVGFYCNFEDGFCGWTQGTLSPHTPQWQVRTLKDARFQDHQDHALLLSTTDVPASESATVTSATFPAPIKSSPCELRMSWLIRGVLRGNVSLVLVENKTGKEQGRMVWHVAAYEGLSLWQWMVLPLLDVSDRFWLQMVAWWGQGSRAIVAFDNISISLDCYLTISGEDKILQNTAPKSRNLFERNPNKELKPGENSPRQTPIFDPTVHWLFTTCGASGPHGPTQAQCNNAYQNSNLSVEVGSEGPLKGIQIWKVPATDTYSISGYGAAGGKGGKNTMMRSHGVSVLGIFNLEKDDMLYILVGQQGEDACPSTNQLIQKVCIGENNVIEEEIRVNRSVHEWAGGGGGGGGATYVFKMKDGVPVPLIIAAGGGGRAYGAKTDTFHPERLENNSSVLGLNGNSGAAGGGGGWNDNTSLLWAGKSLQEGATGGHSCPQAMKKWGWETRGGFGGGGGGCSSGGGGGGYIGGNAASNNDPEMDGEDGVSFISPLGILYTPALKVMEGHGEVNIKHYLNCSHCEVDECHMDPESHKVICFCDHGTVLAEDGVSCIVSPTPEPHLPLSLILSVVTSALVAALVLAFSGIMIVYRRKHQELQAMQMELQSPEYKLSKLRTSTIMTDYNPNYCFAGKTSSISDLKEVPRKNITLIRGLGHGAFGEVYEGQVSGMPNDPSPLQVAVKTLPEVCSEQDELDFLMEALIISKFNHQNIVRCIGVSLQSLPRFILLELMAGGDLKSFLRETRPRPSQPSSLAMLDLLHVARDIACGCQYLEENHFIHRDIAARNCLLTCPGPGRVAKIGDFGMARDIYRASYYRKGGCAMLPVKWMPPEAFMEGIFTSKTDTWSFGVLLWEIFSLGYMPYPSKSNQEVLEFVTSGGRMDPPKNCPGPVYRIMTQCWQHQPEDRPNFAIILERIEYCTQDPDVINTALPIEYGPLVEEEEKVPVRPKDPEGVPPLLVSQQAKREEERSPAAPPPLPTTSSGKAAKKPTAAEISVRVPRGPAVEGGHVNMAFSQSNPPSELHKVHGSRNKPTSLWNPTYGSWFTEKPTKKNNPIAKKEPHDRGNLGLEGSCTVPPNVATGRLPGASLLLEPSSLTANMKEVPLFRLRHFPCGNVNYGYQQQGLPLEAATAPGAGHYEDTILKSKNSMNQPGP
Counter-ions that a name gives are not always drawn.
Assay Metric: IC50 (nM)

Recorded IC50, per entry:
O=S(=O)(Nc1ccc2cc1CCc1cccc(c1)Nc1ncc(Cl)c(n1)N2)c1ccc(Cl)cc1 [Example B139, trifluoroacetate] : 290
O=C(Nc1ccc2cc1CCc1cccc(c1)Nc1ncc(Cl)c(n1)N2)c1cccc(Cl)c1 [Example B42, hydrochloride] : 310
O=C(Nc1ccccc1Cl)Nc1ccc2cc1CCc1cccc(c1)Nc1ncc(Cl)c(n1)N2 [Example B84, trifluoroacetate] : 730
Cc1noc(C)c1C(=O)Nc1ccc2cc1CCc1cccc(c1)Nc1ncc(Cl)c(n1)N2 [Example B40, trifluoroacetate] : 430

1 = COc1cccc(C(=O)Nc2ccc3cc2CCc2cccc(c2)Nc2ncc(Cl)c(n2)N3)c1 [Example B66, trifluoroacetate]
2 = O=C(Nc1ccc2cc1CCc1cccc(c1)Nc1ncc(Cl)c(n1)N2)C1CCCCC1 [Example B63, trifluoroacetate]
3 = O=S(=O)(Cc1ccccc1)Nc1ccc2cc1CCc1cccc(c1)Nc1ncc(Cl)c(n1)N2 [Example B147, trifluoroacetate]
4 = O=C(Nc1ccc2cc1CCc1cccc(c1)Nc1ncc(Cl)c(n1)N2)c1ccc(Cl)cc1 [Example B43, hydrochloride]
In: Order the 4 compounds from highest to lowest IC50. Provide the labels, sequenced as the question asks.
Out: 3, 2, 1, 4

* * *

biological target: human JAK2 (a.a. 828-1132) (Homo sapiens, UniProt O60674); construct: JAK2 (a.a. 828-1132); His tag (N); made in house; host or cells: insect cells (baculovirus); assay: In vitro JAK kinase assay (HTRF, phosphorylation of a biotinylated peptide), JAK2; format: biochemical
Sequence (O60674 828-1132): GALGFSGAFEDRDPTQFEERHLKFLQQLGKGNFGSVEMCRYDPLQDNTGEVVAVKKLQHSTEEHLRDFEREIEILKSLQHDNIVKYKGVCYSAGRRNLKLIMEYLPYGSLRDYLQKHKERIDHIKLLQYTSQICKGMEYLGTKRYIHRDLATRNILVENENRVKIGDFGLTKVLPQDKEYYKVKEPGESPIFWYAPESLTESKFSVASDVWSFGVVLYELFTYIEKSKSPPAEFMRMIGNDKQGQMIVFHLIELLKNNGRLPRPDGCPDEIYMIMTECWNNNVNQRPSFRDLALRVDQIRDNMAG
Structures can show the parent of a compound that is named as a salt.
Assay Metric: IC50 (nM)

Recorded IC50, per entry:
O=S1(=O)NCc2cccc(c2)Nc2nc(ncc2Cl)Nc2cccc1c2 [Example C3] : 37
Cc1ncsc1CCC(=O)Nc1ccc2cc1CCc1cccc(c1)Nc1ncc(Cl)c(n1)N2 [Example C48, trifluoroacetate] : 74
O=S1(=O)Cc2cccc(c2)Nc2ncc(Cl)c(n2)Nc2cccc(c2)N1 [Example C9, trifluoroacetate] : 93
O=C(c1ccccn1)N1Cc2cccc(c2)Nc2ncc(Cl)c(n2)Nc2cccc1c2 [Example C23] : 281
O=C(c1cccnc1)N1Cc2cccc(c2)Nc2ncc(Cl)c(n2)Nc2cccc1c2 [Example C27] : 59
O=S1(=O)Nc2cccc(c2)Nc2ncc(Cl)c(n2)Nc2cccc1c2 [Example C7, trifluoroacetate] : 36
Cc1nc(CC(=O)Nc2ccc3cc2CCc2cccc(c2)Nc2ncc(Cl)c(n2)N3)c(C)s1 [Example C46, trifluoroacetate] : 170
Fc1cnc2nc1Nc1cccc(c1)CCc1cncc(c1)N2 [Example C21, bis(trifluoroacetate)] : 28

A = Fc1cnc2nc1Nc1cccc(c1)CCc1ccnc(c1)N2 [Example C16]
B = O=C1Nc2cccc(c2)Nc2ncc(Cl)c(n2)Nc2cccc1c2 [Example C1, hydrochloride]
In: Field: entry with larger IC50 (options A / B ). Mark your answer with the label of the selected entry.
Out: B

a = COC(=O)c1ccc2cc1CCc1cncc(c1)Nc1ncc(Cl)c(n1)N2 [Example C28]
b = Cc1[nH]c2ccccc2c1CC(=O)Nc1ccc2cc1CCc1cccc(c1)Nc1ncc(Cl)c(n1)N2 [Example C34, trifluoroacetate]
In: Field: entry with larger IC50 (options a / b ). Mark your answer with the label of the selected entry.
Out: b

* * *

target: human JAK1 (a.a. 837-1142) (Homo sapiens); construct: human JAK1 (a.a. 837-1142); His tag (N); made in house; host or cells: insect cells (baculovirus); test: In vitro JAK kinase assay (HTRF, phosphorylation of a biotinylated peptide), JAK1; format: biochemical; details: JAK1 IC50 (nM), Table D1
Sequence (P23458 849-1154): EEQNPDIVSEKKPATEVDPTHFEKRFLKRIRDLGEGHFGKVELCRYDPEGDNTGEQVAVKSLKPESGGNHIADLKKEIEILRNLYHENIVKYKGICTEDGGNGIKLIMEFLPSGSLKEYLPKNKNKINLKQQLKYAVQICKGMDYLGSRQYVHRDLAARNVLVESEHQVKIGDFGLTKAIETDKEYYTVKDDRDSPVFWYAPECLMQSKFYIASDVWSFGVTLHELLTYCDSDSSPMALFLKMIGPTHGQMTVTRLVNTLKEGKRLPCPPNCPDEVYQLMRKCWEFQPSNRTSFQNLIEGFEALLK
Assay Metric: IC50 (nM)
Answer in nM, number only, no unit symbol.

In: Quick one: give measured IC50 for CC(=O)N1CCC(CCOc2ccc3cc2CCc2cncc(c2)Nc2ncc(Cl)c(n2)N3)CC1 [Example D161, bis(trifluoroacetate)]
Out: 85

* * *

molecular target: human JAK2 (a.a. 828-1132) (Homo sapiens); construct: JAK2 (a.a. 828-1132); His tag (N); made in house; host or cells: insect cells (baculovirus); assay: In vitro JAK kinase assay (HTRF, phosphorylation of a biotinylated peptide), JAK2; format: biochemical; details: method AA1 (30 μM ATP) or AA2 (1000 μM ATP), not stated per value
pIC50: −log10 of the molar value.
Assay Metric: pIC50

P = CC(C)C(=O)N1CCC(CC(=O)Nc2ccc3cc2CCc2cncc(c2)Nc2ncc(Cl)c(n2)N3)CC1 [Example A103, bis(trifluoroacetate)]
Q = O=C(CC1CCN(S(=O)(=O)c2ccccc2)CC1)Nc1ccc2cc1CCc1cncc(c1)Nc1ncc(Cl)c(n1)N2 [Example A195, bis(trifluoroacetate)]
R = O=C(CC1CCN(C(=O)c2ncco2)CC1)Nc1ccc2cc1CCc1cncc(c1)Nc1ncc(Cl)c(n1)N2 [Example A139, bis(trifluoroacetate)]
In: Hi! Can you put these in order of pIC50, lowest number first? Provide the labels, sequenced as the question asks.
Out: Q, P, R

* * *

target: human JAK2 (a.a. 828-1132) (Homo sapiens, UniProt O60674); construct: JAK2 (a.a. 828-1132); His tag (N); made in house; host or cells: insect cells (baculovirus); assay: In vitro JAK kinase assay (HTRF, phosphorylation of a biotinylated peptide), JAK2; format: biochemical; conditions: Table D1
pIC50: −log10 of the molar value.
Assay Metric: pIC50

O=C(CC1CN(c2nccs2)C1)Nc1ccc2cc1CCc1cncc(c1)Nc1ncc(Cl)c(n1)N2 [Example D152, tris(trifluoroacetate)] : 7.02
O=C(CC1CN(C(=O)c2c[nH]nn2)C1)Nc1ccc2cc1CCc1cncc(c1)Nc1ncc(Cl)c(n1)N2 [Example D148, bis(trifluoroacetate)] : 7.47

P = Cc1occc1NC(=O)N1CCC(CCOc2ccc3cc2CCc2cncc(c2)Nc2ncc(Cl)c(n2)N3)CC1 [Example D164, bis(trifluoroacetate)]
Q = O=C(CC1CN(C(=O)c2ccn[nH]2)C1)Nc1ccc2cc1CCc1cncc(c1)Nc1ncc(Cl)c(n1)N2 [Example D150, bis(trifluoroacetate)]
In: Field: entry with larger pIC50 (options P / Q ). Mark your answer with the label of the selected entry.
Out: P
(P: 7.12, Q: 6.87)

I = O=C(CC1CN(c2nc3ccccc3s2)C1)Nc1ccc2cc1CCc1cncc(c1)Nc1ncc(Cl)c(n1)N2 [Example D138, tris(trifluoroacetate)]
II = O=C(CC1CCN(c2nccs2)C1)Nc1ccc2cc1CCc1cncc(c1)Nc1ncc(Cl)c(n1)N2 (centres unmarked) [Example D154, tris(trifluoroacetate)]
In: Field: entry with larger pIC50 (options I / II ). Mark your answer with the label of the selected entry.
Out: II

1 = O=C(C[C@H]1CCN(C(=O)Nc2ccccc2F)C1)Nc1ccc2cc1CCc1cncc(c1)Nc1ncc(Cl)c(n1)N2 [Example D104, bis(trifluoroacetate)]
2 = Clc1cnc2nc1Nc1cccc(c1)OCCc1cc(CN3CCNCC3)cc(c1)N2 [Example D191, tris(trifluoroacetate)]
In: Please indicate which entry, 1 or 2 , has the lower recorded pIC50 value. Mark your answer with the label of the selected entry.
Out: 1
(1: 6.59, 2: 8.85)

* * *

biological target: human JAK3 (a.a. 781-1124) (Homo sapiens, UniProt P52333); construct: JAK3 (a.a. 781-1124); His tag (N); made in house; host or cells: insect cells (baculovirus); test: In vitro JAK kinase assay (HTRF, phosphorylation of a biotinylated peptide), JAK3; assay type: biochemical; conditions: Table B1
Sequence (P52333 781-1124): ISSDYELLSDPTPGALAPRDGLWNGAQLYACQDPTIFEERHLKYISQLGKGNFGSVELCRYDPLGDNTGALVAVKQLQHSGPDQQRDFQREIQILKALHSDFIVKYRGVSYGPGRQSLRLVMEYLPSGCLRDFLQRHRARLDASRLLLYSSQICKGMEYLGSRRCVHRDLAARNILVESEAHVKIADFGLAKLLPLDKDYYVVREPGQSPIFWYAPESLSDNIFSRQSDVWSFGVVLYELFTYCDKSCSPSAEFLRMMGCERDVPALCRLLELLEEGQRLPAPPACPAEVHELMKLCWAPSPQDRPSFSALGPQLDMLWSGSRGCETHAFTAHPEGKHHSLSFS
Where a name gives a salt, the structure may show the parent alone.
Assay Metric: IC50 (nM)

O=C(Nc1ccc2cc1CCc1cccc(c1)Nc1ncc(Cl)c(n1)N2)N[C@H]1CCN(C(=O)c2nccs2)C1 [Example B231, trifluoroacetate] : 65

a = O=C(Nc1ccc2cc1CCc1cccc(c1)Nc1ncc(Cl)c(n1)N2)c1cccc(Cl)c1 [Example B42, hydrochloride]
b = O=C(Nc1ccc2cc1CCc1cccc(c1)Nc1ncc(Cl)c(n1)N2)C1CCC1 [Example B57, hydrochloride]
In: Please indicate which entry, a or b , has the lower recorded IC50 value. Mark your answer with the label of the selected entry.
Out: a

* * *

target: human JAK2 (a.a. 828-1132) (Homo sapiens); construct: JAK2 (a.a. 828-1132); His tag (N); made in house; host or cells: insect cells (baculovirus); test: In vitro JAK kinase assay (HTRF, phosphorylation of a biotinylated peptide), JAK2; format: biochemical; settings: method AA1 (30 μM ATP) or AA2 (1000 μM ATP), not stated per value
Where a name gives a salt, the structure may show the parent alone.
Assay Metric: IC50 (nM)

Recorded IC50, per entry:
Cc1cc(C(=O)N2CCC(CC(=O)Nc3ccc4cc3CCc3cccc(c3)Nc3ncc(Cl)c(n3)N4)CC2)no1 [Example A86, trifluoroacetate] : 2.2
O=C(CC1CCN(c2nc3ccccc3s2)CC1)Nc1ccc2cc1CCc1cncc(c1)Nc1ncc(Cl)c(n1)N2 [Example A157, tris(trifluoroacetate)] : 102

P = Cn1ccc2c(NC(=O)N3CCN(C(=O)COc4ccc5cc4CCc4cccc(c4)Nc4ncc(Cl)c(n4)N5)CC3)cccc21 [Example A11, trifluoroacetate]
Q = COc1ccc2cc1Nc1nc(ncc1Cl)Nc1cccc(c1)CC2 [Example A25, trifluoroacetate]
R = COc1ccccc1NC(=O)N1CCC(CC(=O)Nc2ccc3cc2CCc2cncc(c2)Nc2ncc(Cl)c(n2)N3)CC1 [Example A152, bis(trifluoroacetate)]
S = Cc1nonc1C(=O)N1CCC(CC(=O)Nc2ccc3cc2CCc2cncc(c2)Nc2ncc(Cl)c(n2)N3)CC1 [Example A166, bis(trifluoroacetate)]
In: List by increasing IC50. Provide the labels, sequenced as the question asks.
Out: R, P, Q, S
(R: 2.4 nM, P: 5.6 nM, Q: 21 nM, S: 300 nM)
